Target: Aster-A (Homo sapiens, UniProt Q96CP6)
Sequence (Q96CP6 359-547): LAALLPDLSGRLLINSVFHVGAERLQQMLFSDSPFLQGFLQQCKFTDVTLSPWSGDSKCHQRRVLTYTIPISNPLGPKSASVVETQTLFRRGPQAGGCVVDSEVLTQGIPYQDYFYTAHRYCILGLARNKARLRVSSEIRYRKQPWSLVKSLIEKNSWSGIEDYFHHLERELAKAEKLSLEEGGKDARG
# note: exactly 5 µM is not below, so it is Not fulfilled; use Fulfilled for IC50 strictly under it

CC12CCC3CC1CCC21C(=Nc2ccc(N4CCOCC4)cc21)O3 (single isomer, unassigned; (-)) [(−)-19a] :: Fulfilled
C[C@@]12CC[C@H]3C[C@@H]1CC[C@]21C(=Nc2ccc(Br)cc21)O3 [(−)-15b] :: Fulfilled
CC12CCC3CC1CCC21C(=Nc2ccc(Cl)cc21)O3 (centres unmarked) [Compound 15c] :: Fulfilled
CC12CCC3CC1CCC21C(=Nc2ccc(Br)cc21)O3 (single isomer, unassigned; (+)) [(+)-15b] :: Not fulfilled
COc1ccc(-c2ccc3c(c2)C24CCC5CC(CCC52C)OC4=N3)cc1 (centres unmarked) [Compound 21b] :: Fulfilled

Is 5 µM strictly greater than the compound's reported IC50? compound: C[C@]12CC[C@@H]3C[C@H]1CC[C@@]21C(=Nc2ccc(Br)cc21)O3 (racemic) [Compound 15b]
Fulfilled

Consider CC12CCC3CC1CCC21C(=Nc2ccc(N4CCNCC4)cc21)O3 (centres unmarked) . Does its IC50 lie strictly below 5 µM?
Not fulfilled

FYI, the data here is from paper PMC11758220.
